Parameter: composite z-score. Scope: all listed entries.
Tested on: Human papillomavirus type 1a E7 protein (residues 1-88)
Experiment description: HPV1a E7 small-molecule binders, primary screen, biochemical, small-molecule microarray, residues 1-88, 635 nm (AID 1129)
Experimental setup: small-molecule microarray binding, fluorescence 635 nm; higher = more signal

Molecule | composite z-score
[N-]=[N+]=NCc1ccccc1C[C@]1(C(N)=O)N=C(c2ccc(OCCCO)cc2)O[C@H]1c1ccccc1CN=[N+]=[N-] | 0.974
Cc1ccc(N2C(=O)c3ccccc3[C@@H](C(=O)NCC(F)(F)F)[C@@H]2c2ccc(CO)cc2)nc1 | -2.06
CC(C)N1CC=CC23O[C@@H]4/C=C\CCCOC(=O)C4[C@H]2C(=O)N(CCO)[C@@H]3C1=O (some centres undefined) | -0.328
O=C1OCC=C[C@H]2OC34C=CCN(Cc5ccccc5)C(=O)[C@H]3N(CCO)C(=O)[C@@H]4[C@@H]12 (some centres undefined) | -0.766

###

System: XIP peptide (Xip251-270)
Experiment description: small-molecule binders of XIP peptide, primary screen, biochemical, small-molecule microarray, fluorescence 635/667 nm, 0.5 µg/mL protein (AID 1183)
Experimental setup: small-molecule microarray binding, fluorescence 635 nm; higher = more signal

Compound structure | composite z-score
COc1ccc([Si](C)(C)[C@@H]2[C@@H](CCO)O[C@]3(C(=O)N(Cc4ccc(NC(=O)[C@H](C)O)cc4)c4ccccc43)[C@H]2C)cc1 | 0.752
CO[C@H]1COC(=O)CC=C[C@H](C)COC(=O)[C@@H](OCc2ccccc2)C=C[C@@H]1C | 0.547
COc1cccc([C@@H]2[C@@H](C)CC[C@H]3C(=O)N4[C@H](c5cccc(OC)c5)[C@@H](C)CC[C@H]4C(=O)N23)c1 | 0.379
CN(C)CCCC[C@@H]1NC(=O)[C@@H]2C[C@H](C(=O)O)[C@H](c3ccc(O)cc3)N2C1=O | 0.386

###

Experiment description: splicing luciferase reporter signal modulators, primary screen, spliceosome inhibition project, cell-based, HEK293, splice +/- reporter (AID 1101);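 further: HEK293 cells carrying a splicing-competent luciferase reporter gene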
Experimental setup: luminescence, 24 h, higher = more signal, called active from +8 up or from −8 down
Measured parameter: z-score

Compound | Reading
CN1CCC(CCCO)=CC1C1CC1 (centres undefined) | -1.18
COc1cc(CO)cc(I)c1O[C@H]1C=C(C(=O)NCCO)C[C@@H](NCCc2c[nH]c3ccccc23)[C@@H]1O | -1.01
O=C1c2ccccc2[C@@]2(Cc3ccccc3N(CC(F)(F)F)C2=O)[C@H](c2ccc(CO)cc2)N1C1CCCCC1 | -0.189
CCN1C(C)=C(C(=O)OC)[C@@H](c2ccccc2)N2C(=O)[C@@]3(C(=O)OC)O[C@@]12[C@@H]1C(=O)N(c2ccccc2)C(=O)[C@@H]13 | -1.66

###

System: PRMT1 (protein arginine N-methyltransferase 1)
Experiment description: PRMT1 binders on small-molecule microarrays, primary screen, biochemical, small-molecule microarray, 635 nm fluorescence (AID 1088);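 further: binding of Prmt1 protein to compounds spotted on small-molecule microarray slides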
Experimental setup: small-molecule microarray binding, higher = more signal

Compound | composite z-score
CN1C2C=C(c3ccc(CO)cc3)C(C3C(=O)N(C(N)=O)C(=O)C32)C1c1cccs1 (configuration not stated) | 0.4
COc1cc(CO)cc(I)c1O[C@H]1C=C(C(=O)NCCO)C[C@@H](NCCc2c[nH]c3ccccc23)[C@@H]1O | 1.39
O=C1OCC=C[C@H]2OC34C=CCN(Cc5ccccc5)C(=O)[C@H]3N(CCO)C(=O)[C@@H]4[C@@H]12 (some centres not stated) | 0.409
COCCOC(=O)N1C(=O)[C@@]2(c3cc(C#CC4(O)CCCCCC4)ccc31)[C@H](C(=O)N1CCCCCCC1)[C@H]1C(=O)O[C@H](c3ccccc3)[C@H](c3ccccc3)N1[C@@H]2c1ccc(O)cc1 | 1.56
CN1C(=O)C2C=CC(C(O)c3ccc(N(C)C)cc3)N(Nc3ccc([N+](=O)[O-])cc3[N+](=O)[O-])C2C1=O (configuration not stated) | 1.1
COC(=O)[C@@]1(Cc2ccc(OC)cc2)[C@H]2c3cc(C(=O)N(C)C)n(Cc4ccc(C)c(F)c4F)c3C[C@H]2CN1C(=O)c1ccccc1 | 0.223
O=C1O[C@H](c2ccccc2)[C@H](c2ccccc2)N2[C@H]1[C@@H](C(=O)Nc1nc3ccccc3s1)[C@]1(C(=O)Nc3ccc(C#CC4=CCCCC4)cc31)[C@H]2c1ccccc1OCCO | 1.56

###

Tested on: XIP peptide (Xip251-270) binding
Experiment description: small-molecule binders of XIP peptide, primary screen, biochemical, small-molecule microarray, fluorescence 635/667 nm, 0.1 µg/mL protein (AID 1182)
Experimental setup: fluorescent protein binding, 635 nm, higher = more signal, called active from +8 up or from −8 down
Parameter: composite z-score. Scope: all listed entries.

Compound | Assayed system | composite z-score
CCCC=C(CCC)[C@@H](NS(=O)(=O)c1ccc(-c2ccccc2)cc1)c1ccc(C(=O)OC)cc1 | XIP peptide (Xip251-270) binding | 0.046
C=C(CCCC)/C(=C/C[C@@H](OC(=O)c1ccncc1)c1ccc(CO)o1)c1cnc2ccccc2c1 | XIP peptide (Xip251-270) binding | 0.518
O=C1OCC=C[C@H]2OC34C=CCN(Cc5ccccc5)C(=O)[C@H]3N(CCO)C(=O)[C@@H]4[C@@H]12 (some centres undefined) | XIP peptide (Xip251-270) binding | -0.132
CC(C)C[C@@H]1NC(=O)[C@H](CC(C)C)NC(=O)[C@@]23C(=O)N[C@@H](Cc4ccccc4)C2[C@H](C)[C@@]2(C)O[C@H]2C3/C=C/CC/C=C/CNC1=O (some centres undefined) | XIP peptide (Xip251-270) binding | -0.404

###

Parameter: z-score. Scope: all listed entries.
Experiment description: Plasmodium falciparum growth inhibition, primary screen, strain 3D7, DAPI fluorescence, 100 nL (AID 1184);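 further: parasites grown inside human red blood cells in medium with human serum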
Experimental setup: P. falciparum 3D7 growth, 3 d, higher = more signal
Measured parameter: z-score

Molecule | Reading
C#CCCCON=C1C[C@@H](O)[C@@H](O)[C@@H]2[C@@H]3C(=O)N(Cc4ccc5c(c4)OCO5)C(=O)[C@@H]3CC[C@@H]12 | -0.0159
C=CCC(OC(C)=O)[C@@H]1[C@@H](N(Cc2ccc(-c3ccccc3)cc2)C(=O)c2ccc(-c3ccccc3)cc2)c2cc(OCCCO)ccc2N1C(=O)Cc1ccc(OC)cc1 (stereo partly specified) | -0.314
C=CCC(OC(C)=O)[C@@H]1[C@@H](N(Cc2cc3ccccc3o2)C(=O)Cc2ccc(F)cc2)c2cc(OCCCO)ccc2N1C(=O)c1ccc(-c2ccccc2)cc1 (stereo partly specified) | -0.0101
O=C1OCC=C[C@H]2OC34C=CCN(Cc5ccccc5)C(=O)[C@H]3N(CCO)C(=O)[C@@H]4[C@@H]12 (stereo partly specified) | 0.438
COCCOC(=O)N1C(=O)[C@@]2(c3cc(C#CCNC(N)=O)ccc31)[C@H](c1ccc(OCCO)cc1)N1[C@H](c3ccccc3)[C@H](c3ccccc3)OC(=O)[C@H]1[C@@H]2C(=O)Nc1nc2ccccc2s1 | -1.08
C[N+](C)(C)CCCCNC(=O)[C@@H]1C[C@@H]2C(=O)N3CCC[C@H]3C(=O)N2[C@@H]1c1cccc(OCCO)c1 | -0.294

###

System: Lefty1
Experiment description: Lefty1 binders on small-molecule microarrays, primary screen, biochemical, small-molecule microarray, 635/667 nm fluorescence (AID 1139)
Experimental setup: small-molecule microarray binding, fluorescence 635/667; higher = more signal
Parameter: composite z-score. Scope: all listed entries.

Compound structure | composite z-score
Cc1ccc(N2C(=O)c3ccccc3[C@@H](C(=O)NCC(F)(F)F)[C@@H]2c2ccc(CO)cc2)nc1 | -3.17
C=C(COC)/C(=C/C[C@H](OC(C)=O)c1ccc(OCCO)cc1)c1cnc2ccccc2c1 | 1.27
CC(=O)NCCCC[C@@H]1NC(=O)[C@@H]2C[C@H](C(=O)NCc3ccc(F)cc3)[C@H](c3cccc(OCCO)c3)N2C1=O | 0.115
C=C(/C(=C/C[C@@H](OC(=O)c1ccncc1)c1ccc(CO)o1)c1cnc2ccccc2c1)C(C)C | 0.949

###

Experiment description: basal 3T3-L1 adipocyte mitochondrial potential changes, profiling panel, cell-based, JC-1 fluorescence, 3T3-L1 adipocytes, 24 h, 100 nL compound (AID 1168)
Experimental setup: JC-1 mitochondrial fluorescence, higher = more signal, called active from +8 up or from −8 down
Active and inactive are the calls of the source.
Parameter: z-score. Scope: all listed entries.

Compound | z-score
CO[C@H]1COC(=O)[C@H](C)NC(=O)CC=C[C@@H](C)[C@H](NS(=O)(=O)c2ccc(C)cc2)COC(=O)CC=C[C@@H]1C | -0.236 (inactive)
[N-]=[N+]=NCc1ccccc1[C@H]1OC(c2ccc(OCCCO)cc2)=N[C@@]1(Cc1ccccc1N=[N+]=[N-])C(=O)NCc1ccccc1 | -0.296 (inactive)
CCOC(=O)C1=C[C@@H](c2ccccc2)N(S(=O)(=O)c2ccc(C)cc2)[C@H]1c1ccc(F)cc1 | -1.16 (inactive)
CCOC(=O)C[C@H]1[C@H](OC(=O)Cc2ccc3c(c2)OCO3)[C@@H](NC(=O)c2ccc3ccccc3c2)c2cc(OCCCO)ccc2N1C(=O)Cc1ccc(OC)cc1 | -0.14 (inactive)
CC(=O)NCCCC[C@@H]1NC(=O)[C@@H]2C[C@H](C(=O)NCCCCCCN(C)C)[C@H](c3ccc(O)cc3)N2C1=O | 0.957 (inactive)
CO[C@H]1O[C@H](CO)[C@@H](OC(=O)CCc2ccccc2)[C@@H]2OC(=O)[C@H](Cc3cccc(Br)c3)C/C=C/C[C@@H](Cc3cccc(Br)c3)C(=O)O[C@@H]12 | 1.6 (inactive)
C=C(C(=O)CC[C@H](OC(=O)c1ccccc1-c1ccccc1C(=O)O)c1ccc(CO)o1)C(C)C | -0.244 (inactive)
C[C@@H]1CC[C@H]2C(=O)N3[C@@H](CC[C@@H](C)[C@@H]3c3cccc(N4CCOCC4)c3)C(=O)N2[C@H]1c1cccc(N2CCOCC2)c1 | 0.543 (inactive)
O=C1O[C@H](c2ccccc2)[C@H](c2ccccc2)N2[C@H]1[C@@H](C(=O)NC[C@H](O)c1ccccc1)[C@]1(C(=O)Nc3ccc(C#CC4=CCCCC4)cc31)[C@H]2c1ccc(OCCO)cc1 | 1.27 (inactive)
C=CCC1=C[C@H]2[C@H]([C@@H]3C=C[C@]2(CC=C)C(=O)[C@]32CO2)[C@@]2(CO2)C1=O | 1.54 (inactive)
C#CCNC(/C=C/c1ccccc1)CO (centres undefined) | 0.308 (inactive)
C[N+](C)(C)CCCC[C@@H]1NC(=O)[C@H]2C[C@@H](C(=O)NCc3ccc(F)cc3)[C@@H](c3cccc(OCCO)c3)N2C1=O | 1.06 (inactive)
C=CCOC(=O)[C@@H]1[C@H]2C(=O)O[C@H](c3ccccc3)[C@H](c3ccccc3)N2[C@H](c2ccc(OCCOC(=O)[C@H]3C[C@H]4C(=O)N[C@@H](CCCCNC(C)=O)C(=O)N4[C@H]3c3ccc(O)cc3)cc2)[C@@]12C(=O)Nc1ccc(I)cc12 | 0.725 (inactive)
CC(C)NC(=O)[C@@]1(Cc2ccccc2I)c2ccccc2C(=O)N(C2CCCCC2)[C@H]1c1ccc(CO)cc1 | -0.68 (inactive)
